Source: patent US20110300156A1

Hi there, I'd appreciate the recorded Max MFI for every entry that follows.
target: T1, human tissue factor (TF), membrane-bound on cells (human, UniProt P13726 33-295); experiment: FACS, Bx-PC3 cells, 30 µg/mL
T1 construct: whole, on cells; also called cellular TF
// keep it numeric: no unit symbol after the value

// field: Max MFI; key: anti-TF HuMab 025 (antibody, V domains shown, Human monoclonal antibody from HuMab mice) VH: QVQLVESGGGVVQPGRSLRLSCAASGFTFSRYAMHWVRQAPGKGLEWVAVISNDGYNDYYADSVKGRFTVSRDNSKNTLYLQMNSLRAEDTAVYYCARDGQLGRGYFDYWGQGTLVTVSS VL: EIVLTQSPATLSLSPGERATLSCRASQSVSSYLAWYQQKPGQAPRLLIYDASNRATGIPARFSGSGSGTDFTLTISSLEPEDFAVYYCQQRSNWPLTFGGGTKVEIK ; value = 1320

Record anti-TF HuMab 098 (antibody, V domains shown, Human monoclonal antibody from HuMab mice; also called HuMab-TF-098; HuMab-TF-98) VH: QVQLVQSGAEVRKPGSSVKVSCKASGGSFNNYPIFWVRQAPGQGFEWMGRIIPILGITAYAQKFQGRVTITADKSTSTAYMELNSLRSEDTAVYYCAGGDDLDAFDIWGQGTMVSVSS VL: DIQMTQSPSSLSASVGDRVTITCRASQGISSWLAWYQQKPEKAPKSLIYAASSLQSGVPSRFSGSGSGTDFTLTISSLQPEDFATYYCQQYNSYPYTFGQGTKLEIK . Reported Max MFI: 1150

Lab note: measured Max MFI of anti-TF HuMab 044 (antibody, V domains shown, Human monoclonal antibody from HuMab mice) VH: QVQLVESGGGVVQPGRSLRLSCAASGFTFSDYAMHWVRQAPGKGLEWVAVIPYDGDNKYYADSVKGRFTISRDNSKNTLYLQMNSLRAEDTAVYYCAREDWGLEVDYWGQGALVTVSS VL: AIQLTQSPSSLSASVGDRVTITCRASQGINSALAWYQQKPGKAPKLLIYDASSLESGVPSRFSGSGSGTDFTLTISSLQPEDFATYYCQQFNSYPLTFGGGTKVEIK was 1140
